# Experimental Target: CPXV ortholog of L1 (cowpox virus)
# Assay Info: lysate ELISA
Parameter Measured: EC50 (µg/mL)
The answer is to be given in µg/mL; state only the numeric part.

What measured EC50 goes with VACV-33 (antibody, V domains shown) VH: QLQLQESGPGLVKPSETLSLTCTVSGGSISSGGYYWGWIRQPPGKGLEWIASIYYSGSTYYNPSLKSRVTISVDTSKTQFSLKLSSVTAADTAVYYCARQSSSTGGFHYWGQGTLVTVSS VL: QSVLTQPPSVSGAPGQRVTISCTGSSSNIGAGYDVHWYQHLPGTAPKLLIYGNSNRPSGVPDRFSGSKSGTSASLAITGLQAEDEANYYCQSYDSSLSGREVFGGGTQLTVL ?
0.06

What measured EC50 goes with MPXV-26 (antibody, V domains shown) VH: QVQLVQSGGGLIQPGGSLRLSCVVSGFNVATNYMSWVRQAPGKGLEWVSVIYSGGSTYYADSVKGRFTISRDNSKNTVFLQMNSLRPEDTAAYYCAKGGGLGLDYWGQGTLVTVSS VL: QSALTQPPSASGSPGQSVTITCTGSSSDVGGYNYVSWYQQHPGKAPKVVIYEVNKRPSGVPHRFSGSKSGNTASLTVSGLQAEDEADYYCSSYAGTETVAFGGGTKLTVL ?
0.05

What measured EC50 goes with MPXV-83 (antibody, V domains shown) VH: QVQLVESGGGVVQPGRSLRLSCAASGFTFSSYSMHWVRQAPGKGLEWVAVISFDGRSNYYADSVRGRFTISRDNSKKTMYLQMNSLRLADTAVYYCARGGIGAPDPRNGLEVWGRGAPVTLSS VL: DIQMIQSPSSLSASVGDRVTISCQATQDISNSVNWYQQKPGKAPKLLIYDASTLETGVPSRFSGGGSGTHFTFTISSLQPEDIATYYCQQFHSLPPTFGQGPKGISK ?
0.03

What measured EC50 goes with MPXV-87 (antibody, V domains shown) V domain 1: QVQLVQSGAEVKKPGASVKVSCKASGYTFTSHGIIWVRQAPGQGLEWMGWISVYNDNTNSAQKFQDRVTMTTATSTSTAYMELRSLRSDDTAVYYCARSSSGPRYYYYGMDVWGQGTTSP V domain 2: QSVVTQPPSVSGAPGQRVTISCTGSSSNIGAGYAVHWYYQLPGIAPKLLIFGNNNRPSGVPDRFSGSKSGTSASLAITGLQAEDEADYYCQSYDSSLSGWVFGGGTQVTVL ?
0.003
